Test: Measurement of LogP values by HPLC on reversed phase columns (EEC directive 79/831 Annex V.A8)
Format: physicochemical
measured-metric: LogP [a]

O=C(O)c1snc(N(Cc2ccccc2)Cc2ccccc2)c1-c1ccc(F)cc1	4.49^[a]

Which measured LogP [a] value corresponds to Nc1nsc(C(=O)N2CCc3ccccc3C2)c1Cl ?
2.02

What do you have for COc1ccc2c(c1)CCCN2C(=O)c1snc(N)c1Cl ?
2.11

Could you do the same for Cc1ccc(S(C)=Nc2nsc(C(=O)NCC3CCCCC3)c2F)cc1 (centres unmarked) , please?
3.10^[a]

Moving on to COc1ccc(CNc2nsc(C(=O)OC(C)C)c2NCc2ccc(OC)cc2)cc1
4.56

====

Test: Measurement of LogP values by HPLC on reversed phase columns (EEC directive 79/831 Annex V.A8)
Type: physicochemical
Marks after values point to notes of the source that are not given here.
measured-metric: LogP

COc1ccc(CNc2nsc(C(=O)NCC3CCCCCC3)c2Cl)cc1	4.69[a]
CC(C)N(Cc1ccc(Cl)cc1Cl)C(=O)c1snc(N)c1Cl	3.71[a]
COc1ccc(CNc2nsc(C(=O)NC3CCc4ccc(C(C)(C)C)cc4C3)c2Cl)cc1 (centres unmarked)	5.41[a]

Can you share its LogP? I mean this compound: COc1ccc(CNc2nsc(C(=O)NC(C)c3nc(C(C)C)no3)c2Cl)cc1 (centres unmarked)
3.46[a]

// query: CCC(c1ccc(Cl)cc1Cl)N(C(=O)c1snc(NCc2ccc(OC)cc2)c1Cl)C1CC1 (centres unmarked)
5.62[a]

====

Assay: Measurement of LogP values by HPLC on reversed phase columns (EEC directive 79/831 Annex V.A8)
Type: physicochemical
Marks after values point to notes of the source that are not given here.
measured-metric: LogP

Example results:
COc1ccc(CNc2nsc(C(=O)NC(C)c3ccncc3)c2Cl)cc1 (stereo not drawn) [I-1189]	1.54[a]
COc1ccc(CNc2nsc(C(=O)Nc3ccccc3C#N)c2Cl)cc1 [I-881]	3.62[a]
Nc1nsc(C(=O)NC2(C3CCCCC3)CC2)c1Cl [I-143]	2.82[a]
Cc1c(N)nsc1C(=O)NCc1ccc(C(F)F)cc1 [I-156]	1.66[a]
COc1ccc(CNC(=O)c2snc(N)c2C)cc1 [I-049]	1.42[a]
COc1ccc(CNc2nsc(C(=O)NCc3ccc(F)c(Oc4ccccc4)c3)c2Cl)cc1 [I-223]	4.34[a]

// lookup LogP for Nc1cc(C(=O)NCc2ccccc2Cl)sn1 [I-282]
1.69[a]

Same again, this time with O=C(NCc1ccc(Cl)cc1)c1snc(NC(=O)C(F)F)c1Cl [I-574]
2.51[a]

Again, but for C=CCNc1nsc(C(=O)NCc2ccccc2F)c1Cl [I-071]
2.89[a]

Another compound: COc1ccc(CNc2nsc(C(=O)NCC3CCCCC3)c2Cl)cc1 [I-098]
4.20[a]

Next up: COc1ccc(CNc2nsc(C(=O)NCC3(OC)CCC(C)CC3)c2Cl)cc1 (stereo not drawn) [I-823]
4.33[a]

Now try COc1ccc(CNc2nsc(C(=O)NCc3cccc(C(C)C)n3)c2Cl)cc1 [I-1274] .
2.94[a]

Also Nc1nsc(C(=O)NCCc2ncc(C(F)(F)F)cc2Cl)c1Br [I-964] ?
2.55[a]

Field entry: CCC1(C)CC(NC(=O)c2snc(NCc3ccc(OC)cc3)c2Cl)CC(C)(C)C1 (stereo not drawn) [I-1254]
5.72[a]

Now consider Cc1ccc(F)c(CN(C(=O)c2cc(NCc3ccccc3)ns2)C2CC2)c1 [I-996] .
4.01[a]

====

Consider the following compounds and their measured LogP readings.
Experiment: Measurement of LogP values by HPLC on reversed phase columns (EEC directive 79/831 Annex V.A8)
Format: physicochemical
Experimental: The abbreviations and numerations of the substituent positions used in the context of the present invention and in the following Tables are explained in detail in the section Examples hereinafter. Also, the LogP values indicated in the following Tables are explained in detail in the section Examples hereinafter. […] Lambda-max-values were determined using UV-spectra from 200 nm to 400 nm and the peak values of the chromatographic signals
Marks after values point to notes of the source that are not given here.

// solved cases for LogP follow
COc1ccc(CNc2nsc(C(=O)NC(Cn3ccnc3)C(C)(C)C)c2Cl)cc1 (stereo not drawn)	1.82[a]
CCC(NC(=O)c1snc(NCc2ccc(OC)cc2)c1Cl)c1ccccc1 (stereo not drawn)	4.03[a]
COc1ccc(CNc2nsc(C(=O)NC(C)c3ccc(OC)c(OC)c3)c2Cl)cc1 (stereo not drawn)	3.25[a]

Query: LogP; subject: COc1ccc(CNc2nsc(C(=O)NC3CCCc4ccncc43)c2Cl)cc1 (stereo not drawn)
1.67[a]

Query COc1ccc(CNc2nsc(C(=O)NCc3ccc(F)c(C)c3)c2Cl)cc1 next
3.89[a]

Proceed to Nc1nsc(C(=O)NCc2cccc(F)c2)c1Cl
1.84[a]

// query: CC1(C)CC1N(Cc1ccc(Cl)cc1Cl)C(=O)c1cc(N(Cc2ccccc2)Cc2ccccc2)ns1 (stereo not drawn)
6.79[a]

Again, but for Nc1cc(C(=O)N(Cc2ccccc2)C2CC2)sn1
2.02[a]

And what about the compound O=C(NCC1CCCCC1)c1snc(NCCCO)c1Cl ?
2.46[a]

Consider next the compound Nc1nsc(C(=O)NCCc2ccc(Cl)cc2)c1Cl in the same way.
2.46[a]

Then what about the compound CCC1(CNC(=O)c2snc(NCc3ccc(OC)cc3)c2Cl)CCCCC1 ?
4.89[a]

Try this compound too: O=C(NCc1ncc(C(F)(F)F)cc1Cl)c1snc(NC(=O)C2CC2)c1Cl
2.71[a]

Continue with Nc1cc(C(=O)NCc2ccccc2F)sn1
1.41[a]

Repeat with COc1ccc(CNc2nsc(C(=O)NCc3ccc(C(C)(C)C)cc3)c2Cl)cc1
4.69[a]

Please answer likewise for COc1ccc(CNc2nsc(C(=O)NC(C#N)c3ccc(F)c(F)c3)c2Cl)cc1 (stereo not drawn)
3.61[a]

Another: COc1ccc(CNc2nsc(C(=O)N(C3CC3)C3CCCCC3(C)C)c2Cl)cc1 (stereo not drawn)
5.31[a]

Also CCC(NC(=O)c1snc(NCc2ccc(OC)cc2)c1Cl)C1CCCCC1 (stereo not drawn) , if possible.
4.83[b]

Another compound to look at: Nc1nsc(C(=O)NCC2CC2)c1Cl
1.30[a]

One more compound: Nc1nsc(C(=O)N(C2CCCCC2)C2CC2)c1Cl
2.78[a]

Try CCOc1c(N)nsc1C(=O)NCC1CCCCO1 (stereo not drawn) next.
1.66[a]

Here is the next compound: CCOc1c(N)nsc1C(=O)NCC1CCCCCC1
2.83[a]

====

Assay: Measurement of LogP values by HPLC on reversed phase columns (EEC directive 79/831 Annex V.A8)
Format: physicochemical
Protocol: The abbreviations and numerations of the substituent positions used in the context of the present invention and in the following Tables are explained in detail in the section Examples hereinafter. Also, the LogP values indicated in the following Tables are explained in detail in the section Examples hereinafter. […] Lambda-max-values were determined using UV-spectra from 200 nm to 400 nm and the peak values of the chromatographic signals
Marks after values point to notes of the source that are not given here.
measured-metric: LogP

Item under review: COc1ccc(CNc2nsc(C(=O)NC(C)c3ccc(C(C)C)cc3)c2Cl)cc1 (stereo not shown) [I-1207] . Reported LogP?
4.69[a]

Likewise for CCOC(=O)c1cccc(CNC(=O)c2snc(N)c2Cl)c1 [I-1307] ?
2.03[a]

Try this compound next: Cc1c(N)nsc1C(=O)NCc1ccc(Cl)cc1 [I-051]
1.86[a]

Next entry: COc1ccc(CNC(=O)c2cc(N)ns2)cn1 [I-099]
0.86[a]

====

Parameter LogP: see the listing below.
Assay: Measurement of LogP values by HPLC on reversed phase columns (EEC directive 79/831 Annex V.A8)
Format: physicochemical
Marks after values point to notes of the source that are not given here.

Take a look at these entries with their results.
Nc1nsc(C(=O)NCC2CCCC2O)c1Cl (single isomer, unassigned) [I-773]	0.88[a]
COc1ccc(CNc2nsc(C(=O)NCc3cnn(C)c3C)c2Cl)cc1 [I-1341]	2.33[a]
COc1ccc(CNc2nsc(C(=O)NC(C)C3(Cl)CC3)c2Cl)cc1 (centres unmarked) [I-1250]	3.90[a]
Nc1nsc(C(=O)NCC2CCCCC2)c1C1CC1 [I-359]	2.37[a]

Returns the measured LogP for the input compound. Input: COc1cc(F)ccc1CNC(=O)c1snc(N)c1Cl [I-782]
2.02[a]

====

Experiment: Measurement of LogP values by HPLC on reversed phase columns (EEC directive 79/831 Annex V.A8)
Assay type: physicochemical
measured-metric: LogP [b]
Reply with just the number.

Please review the entries below; each comes with its answer.
Nc1nsc(C(=O)N2CCc3ccccc3C2)c1Cl [II-020]	1.98
CC1(C)C2CCC1(C)C(NC(=O)c1snc(Cl)c1Cl)C2 (stereo not shown) [E-II-017]	4.96
COc1ccc(CNc2nsc(C(=O)N3CCCCC3)c2Cl)cc1 [II-108]	3.16

I have this compound here, CC1CCc2ccccc2N1C(=O)c1snc(N)c1Cl (stereo not shown) [II-101] , and I need its recorded LogP [b].
2.39

What do we get for CC(NC(=O)c1snc(Cl)c1Cl)C1CCCO1 (stereo not shown) [E-II-032] ?
2.69

Now give it for O=C(NC(c1ccccc1)C1CCCCC1)c1snc(Cl)c1Cl (stereo not shown) [E-II-031] too.
5.05

Lookup CC1(C)C2CCC(CNC(=O)c3snc(Cl)c3Cl)C1C2 (stereo not shown) [E-II-023]
5.02

Another compound: Nc1nsc(C(=O)N2CCCc3ccc(C(F)(F)F)cc32)c1Cl [II-018]
2.71

Can you check COc1ccc(CNc2nsc(C(=O)N3CCCC3)c2Cl)cc1 [II-102] next?
2.66

Same read-out for COc1ccc(CNc2nsc(C(=O)N3CCc4ccccc43)c2Cl)cc1 [II-069] ?
3.76

Provenance of the data: patent US20190110476A1
